The reader will find reported GI50 values listed item by item below.
- Test system: IGROV-1
- experimental_protocol: NCI tumour cell line growth inhibition, 48 h
Activity calls are given as the source filed them. Rule as the data show it: active = GI50 up to about 1.1 µM and inactive = higher.

compound	GI50
O=C(NNC(=S)NCc1ccccc1)C12CC3CC(CC(C3)C1)C2	> 100 µM (inactive)
Cc1cc(C)c([S@@](=O)O[C@@H]2[C@H]3OC(C)(C)O[C@H]3O[C@@H]2[C@H]2COC(C)(C)O2)c(C)c1	4.24 µM (inactive)
COC(=O)C12C34C=CC5(CCC6(C=CC1(CC3)O6)C52C(=O)OC)O4 (configuration not stated)	> 100 µM (inactive)
CC1=CC(C)(C)Nc2ccc(CSc3ccccc3)cc21	52.1 µM (inactive)
CN(C)Cc1cc(/N=N/c2ccc(Cl)c(Cl)c2)ccc1O	3.4 µM (inactive)
Nc1cc2c(C3OC(CO)C(O)C3O)n[nH]c2c(=S)[nH]1 (configuration not stated)	> 100 µM (inactive)
CN(C)CCNC1=CC(=O)c2c(O)ccc(O)c2C1=O	6.17 µM (inactive)
Cc1ccc(S(=O)(=O)N/N=C2\CC3C4C=CC3C2C4)cc1 (configuration not stated)	> 100 µM (inactive)
CC1(C)OC(=O)C(=Cc2ccc(O)cc2)C(=O)O1	> 100 µM (inactive)
CCOC(=O)NC(Nc1ccc(S(=O)(=O)Nc2ncccn2)cc1)(C(=O)OCC)C(F)(F)F (configuration not stated)	> 100 µM (inactive)
CCOC(=O)C(=Cc1ccccc1Cl)C(=O)OCC	3.49 µM (inactive)
O=C(/C=C\c1ccsc1)c1ccccc1	6.9 µM (inactive)
O=C(Nc1ccc(Br)c2ccccc12)c1ccc2ccccc2c1O	2.9 µM (inactive)
CC[S+]([O-])c1c2cc(OC)ccc2nc2ccc(OC)cc12 (configuration not stated)	4.94 µM (inactive)
CCOc1ccc(NC(=O)CCc2nnc(SC)o2)cc1	> 100 µM (inactive)
O=C1CN(c2ccccc2)C(=O)C1C(=O)Nc1ccc(Cl)c(Cl)c1 (configuration not stated)	2.33 µM (inactive)
CCOC(=O)c1c(-c2cccc3ccccc23)c(C#N)c(=S)n(C2OC(COC(C)=O)C(OC(C)=O)C(OC(C)=O)C2OC(C)=O)c1C (configuration not stated)	> 100 µM (inactive)
Clc1ccc2c(c1)CC1C[N+]3=C(CCCCC3)C1=C2 (configuration not stated)	37.2 µM (inactive)
COc1ccc2c(c1)N(C(C)=O)CN1C(=O)CCC21 (configuration not stated)	> 100 µM (inactive)
CCOC1=C2N=C(Cc3ccc(F)cc3)NC2C(=O)c2ccccc21 (configuration not stated)	66.7 µM (inactive)
COc1ccc(CCNC(=O)CCCCCO)cc1OC	> 100 µM (inactive)
Cc1ccc(C)c(N2C(=O)C(=O)C(c3nc4ccccc4s3)/C(=N/NC(=O)NN)C2=O)c1 (configuration not stated)	> 100 µM (inactive)

Entry source: ChEMBL document CHEMBL1201862
